System: EMX1 locus in HEK293T cells
Assay: HDR frequency by HindIII digestion, EMX1 locus, HEK293T cells
Type: cell-based, human
Settings: nocodazole synchronization, 30 ρmol Cas9 RNP, 50 ρmol HDR template
readout-type: HDR frequency (%)
Numbers only, in %.

For orientation, consider the following solved cases.
Sure, the documented HDR frequency for template 3: single-stranded oligonucleotide HDR template with HindIII and BamHI sites, 60-nt homology arms (DNA GGATCCAAGCTT; single-stranded DNA HDR donor oligonucleotide, chemistry not given here) is 19

Sure, the documented HDR frequency for template 4: single-stranded HDR template, 90-nt homology arms, complementary orientation (DNA GGATCCAAGCTT; single-stranded DNA HDR donor oligonucleotide, chemistry not given here) is 23

Others:
Sure, the documented HDR frequency for template 2: single-stranded oligonucleotide HDR template with HindIII and BamHI sites, 30-nt homology arms (DNA GGATCCAAGCTT; single-stranded DNA HDR donor oligonucleotide, chemistry not given here) is 5

Recorded values, source patent US10570418B2.
